solubility kinetic values for the compounds below.
# method-notes: Solubility assay (kinetic solubility, PBS pH 7)
# Format: physicochemical
# conditions: pH 7, aqueous buffer, kinetic from dmso stock, pH 7, PBS; read-out: Solubility
Positions of bridges follow the written chain, without caps; N, C: chain ends. Non-standard residues stand in square brackets, D forms with d. Residues, ends and D or L forms follow the SMILES beside them. Lys(N3) = [N-]=[N+]=NCCCC[C@H](N)C(=O)O; R8 = C=CCCCCCC[C@@](C)(N)C(=O)O; Cba = N[C@@H](CC1CCC1)C(=O)O; S5 = C=CCCC[C@](C)(N)C(=O)O; βAla = NCCC(=O)O; Sar = CNCC(=O)O
metric: solubility kinetic (µM)

>>> test_value("CC(=O)N[C@@H](CCCCN=[N+]=[N-])C(=O)NCCC(=O)N[C@@H](CC(C)C)C(=O)N[C@H](C(=O)N[C@@H](Cc1ccccc1)C(=O)N[C@]1(C)CCCCCCC=CCCC[C@@](C)(C(=O)N[C@@H](CO)C(=O)N[C@@H](C)C(=O)N[C@@H](C)C(N)=O)NC(=O)[C@H](CC2CCC2)NC(=O)[C@H](CCC(N)=O)NC(=O)CN(C)C(=O)[C@H](Cc2c[nH]c3ccccc23)NC(=O)[C@H](Cc2ccc(O)cc2)NC(=O)[C@H](CCC(=O)O)NC1=O)[C@@H](C)O [MP-351] (Ac-[Lys(N3)][βAla]LTF[R8]EYW[Sar]Q[Cba][S5]SAA-NH2; staple 6-13)")
29
>>> test_value("CC(=O)N[C@@H](CCCCN=[N+]=[N-])C(=O)NCCC(=O)N[C@@H](CC(C)C)C(=O)N[C@H](C(=O)N[C@@H](Cc1ccccc1)C(=O)N[C@]1(C)CCCCCCC=CCCC[C@@](C)(C(=O)N[C@@H](CO)C(=O)N[C@@H](C)C(=O)N[C@@H](C)C(N)=O)NC(=O)[C@H](CC2CCC2)NC(=O)[C@H](CCC(=O)O)NC(=O)[C@H](C)NC(=O)[C@H](Cc2c[nH]c3ccccc23)NC(=O)[C@H](Cc2ccc(O)cc2)NC(=O)[C@H](CCC(=O)O)NC1=O)[C@@H](C)O")
179

###

# target-of-assay: human Mdm2 1–125 (Homo sapiens)
# Construct: GST (N); His6 (internal); TEV cleavage site (ENLYFQG) (internal); made in house; host or cells: BL21 (DE3) Rosetta T1R Escherichia coli
# Sequence (Q00987 with tags, fused parts or gaps): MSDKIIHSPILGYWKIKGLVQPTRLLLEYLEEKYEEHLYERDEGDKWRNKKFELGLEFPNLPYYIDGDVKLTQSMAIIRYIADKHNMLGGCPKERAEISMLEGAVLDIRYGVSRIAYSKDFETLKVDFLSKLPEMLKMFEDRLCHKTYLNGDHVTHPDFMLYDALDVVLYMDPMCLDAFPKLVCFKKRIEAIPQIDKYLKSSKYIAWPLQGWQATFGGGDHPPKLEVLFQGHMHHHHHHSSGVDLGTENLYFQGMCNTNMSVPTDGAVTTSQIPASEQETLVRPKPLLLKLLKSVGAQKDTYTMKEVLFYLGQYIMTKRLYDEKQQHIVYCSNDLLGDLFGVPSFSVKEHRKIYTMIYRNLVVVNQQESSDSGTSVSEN
# method-notes: Mdm2 binding by competitive fluorescence anisotropy assay (FP binding)
# conditions: read-out: FP binding assay KD
pKd: −log10 of the molar value.
metric: pKd

>>> test_value("CC(=O)N[C@@H](CC(C)C)C(=O)N[C@H](C(=O)N[C@@H](Cc1ccccc1)C(=O)N[C@]1(C)CCCCCCC=CCCC[C@@](C)(C(=O)N[C@@H](CO)C(=O)N[C@@H](C)C(=O)N[C@@H](C)C(N)=O)NC(=O)[C@H](CC(C)C)NC(=O)[C@H](CCC(N)=O)NC(=O)[C@H](C)NC(=O)[C@H](Cc2c[nH]c3ccccc23)NC(=O)[C@H](Cc2ccc(O)cc2)NC(=O)[C@H](CCC(=O)O)NC1=O)[C@@H](C)O [MP-211]")
7.17
>>> test_value("CC(=O)N[C@@H](CO)C(=O)NCC(=O)N[C@@H](CO)C(=O)N[C@H](C(=O)N[C@@H](CO)C(=O)N[C@@H](Cc1ccccc1)C(=O)N[C@]1(C)CCCCCCC=CCCC[C@@](C)(C(N)=O)NC(=O)[C@H](CC(C)C)NC(=O)[C@H](CC(C)C)NC(=O)[C@H](C)NC(=O)[C@H](Cc2c[nH]c3ccccc23)NC(=O)[C@H](Cc2ccc(O)cc2)NC(=O)[C@H](CCC(=O)O)NC1=O)[C@@H](C)O [MP-654]")
8.23
>>> test_value("CC(=O)N[C@@H](CCCCN)C(=O)N[C@@H](CCCCN)C(=O)N[C@H](C(=O)N[C@@H](CO)C(=O)N[C@@H](Cc1ccccc1)C(=O)N[C@]1(C)CCCCCCC=CCCC[C@@](C)(C(N)=O)NC(=O)[C@H](CC(C)C)NC(=O)[C@H](CC(C)C)NC(=O)[C@H](C)NC(=O)[C@H](Cc2c[nH]c3ccccc23)NC(=O)[C@H](Cc2ccc(O)cc2)NC(=O)[C@H](CCC(=O)O)NC1=O)[C@@H](C)O [MP-142]")
7.37
>>> test_value("CC(=O)N[C@H](C(=O)N[C@@H](CO)C(=O)NC(C)(Cc1ccccc1)C(=O)N[C@@H]1CCCCCCC=CCCC[C@@H](C(N)=O)NC(=O)C(C)(CC(C)C)NC(=O)[C@H](CC(C)C)NC(=O)[C@H](C)NC(=O)[C@H](Cc2c[nH]c3ccccc23)NC(=O)[C@H](Cc2ccc(O)cc2)NC(=O)[C@H](CCC(=O)O)NC1=O)[C@@H](C)O (stereo partly shown) [MP-792]")
6.70
>>> test_value("CC(=O)N[C@H](C(=O)N[C@@H](CO)C(=O)NC(C)(Cc1ccccc1)C(=O)N[C@]1(C)CCCCCCC=CCCC[C@@](C)(C(N)=O)NC(=O)[C@H](CC(C)C)NC(=O)[C@H](CC(C)C)NC(=O)[C@H](C)NC(=O)[C@H](Cc2c[nH]c3ccccc23)NC(=O)[C@H](Cc2ccc(O)cc2)NC(=O)[C@H](CCC(=O)O)NC1=O)[C@@H](C)O (stereo partly shown) [MP-159]")
6.28
>>> test_value("CC(=O)N[C@@H](CCCCN)C(=O)NCCCCCC(=O)N[C@H](C(=O)N[C@@H](CO)C(=O)N[C@@H](Cc1ccccc1)C(=O)N[C@]1(C)CCCCCCC=CCCC[C@@](C)(C(N)=O)NC(=O)[C@H](CC(C)C)NC(=O)[C@H](CC(C)C)NC(=O)[C@H](C)NC(=O)[C@H](Cc2c[nH]c3ccccc23)NC(=O)[C@H](Cc2ccc(O)cc2)NC(=O)[C@H](CCC(=O)O)NC1=O)[C@@H](C)O [MP-716]")
7.96

###

log10 of solubility kinetic values for the molecules below.
# method-notes: Solubility assay (kinetic solubility, PBS pH 7)
# Type: physicochemical
# conditions: pH 7, aqueous buffer, kinetic from dmso stock, pH 7, PBS; read-out: Solubility
Positions of bridges follow the written chain, without caps; N, C: chain ends. Non-standard residues stand in square brackets, D forms with d. Residues, ends and D or L forms follow the SMILES beside them. Lys(N3) = [N-]=[N+]=NCCCC[C@H](N)C(=O)O; R8 = C=CCCCCCC[C@@](C)(N)C(=O)O; Cba = N[C@@H](CC1CCC1)C(=O)O; S5 = C=CCCC[C@](C)(N)C(=O)O; βAla = NCCC(=O)O
metric: log10 of solubility kinetic (log10 of the value in µM)

>>> test_value("CC(=O)N[C@@H](CCCCN=[N+]=[N-])C(=O)NCCC(=O)N[C@@H](CC(C)C)C(=O)N[C@H](C(=O)N[C@@H](Cc1ccccc1)C(=O)N[C@]1(C)CCCCCCC=CCCC[C@@](C)(C(=O)N[C@@H](CO)C(=O)N[C@@H](C)C(=O)N[C@@H](C)C(N)=O)NC(=O)[C@H](CC2CCC2)NC(=O)[C@H](CCC(N)=O)NC(=O)[C@H](C)NC(=O)[C@H](Cc2c[nH]c3ccccc23)NC(=O)[C@H](Cc2ccc(O)cc2)NC(=O)CNC1=O)[C@@H](C)O [MP-210] (Ac-[Lys(N3)][βAla]LTF[R8]GYWAQ[Cba][S5]SAA-NH2; staple 6-13)")
0.30
>>> test_value("CC(=O)N[C@@H](CS)C(=O)N[C@@H](CCCCN=[N+]=[N-])C(=O)NCCC(=O)N[C@@H](C)C(=O)N[C@H](C(=O)N[C@@H](Cc1ccccc1)C(=O)N[C@]1(C)CCCCCCC=CCCC[C@@](C)(C(=O)N[C@@H](C)C(=O)N[C@@H](C)C(=O)N[C@@H](C)C(N)=O)NC(=O)[C@H](CC2CCC2)NC(=O)[C@H](C)NC(=O)[C@H](C)NC(=O)[C@H](Cc2c[nH]c3ccccc23)NC(=O)[C@H](Cc2ccc(O)cc2)NC(=O)[C@H](C)NC1=O)[C@@H](C)O [MP-987] (Ac-C[Lys(N3)][βAla]ATF[R8]AYWAA[Cba][S5]AAA-NH2; staple 7-14)")
1.08
>>> test_value("CC(=O)N[C@H](C(=O)N[C@@H](CO)C(=O)NC(C)(Cc1ccccc1)C(=O)N[C@]1(C)CCCCCCC=CCCC[C@@](C)(C(N)=O)NC(=O)[C@H](CC(C)C)NC(=O)[C@H](CC(C)C)NC(=O)[C@H](C)NC(=O)[C@H](Cc2c[nH]c3ccccc23)NC(=O)[C@H](Cc2ccc(O)cc2)NC(=O)[C@H](CCC(=O)O)NC1=O)[C@@H](C)O (stereo partly drawn)")
1.93
>>> test_value("CC(=O)N[C@@H](CCCCN=[N+]=[N-])C(=O)NCCC(=O)N[C@@H](CC(C)C)C(=O)N[C@H](C(=O)N[C@@H](Cc1ccccc1)C(=O)N[C@]1(C)CCCCCCC=CCCC[C@@](C)(C(=O)N[C@@H](CO)C(=O)N[C@@H](C)C(=O)N[C@@H](C)C(N)=O)NC(=O)[C@H](CCC(=O)O)NC(=O)[C@H](CCC(N)=O)NC(=O)[C@H](C)NC(=O)[C@H](Cc2c[nH]c3ccccc23)NC(=O)[C@H](Cc2ccc(O)cc2)NC(=O)[C@H](CCC(=O)O)NC1=O)[C@@H](C)O")
2.21
>>> test_value("CC(=O)N[C@@H](CCCNC(=N)N)C(=O)NCCCCCC(=O)N[C@@H](CC(C)C)C(=O)N[C@H](C(=O)N[C@@H](Cc1ccccc1)C(=O)N[C@]1(C)CCCCCCC=CCCC[C@@](C)(C(=O)N[C@@H](CO)C(=O)N[C@@H](C)C(=O)N[C@@H](C)C(N)=O)NC(=O)[C@H](CC2CCC2)NC(=O)[C@H](CCC(N)=O)NC(=O)[C@H](C)NC(=O)[C@H](Cc2c[nH]c3ccccc23)NC(=O)[C@H](Cc2ccc(O)cc2)NC(=O)[C@H](CCC(=O)O)NC1=O)[C@@H](C)O")
0.60
>>> test_value("CC(=O)N[C@@H](CCCCN=[N+]=[N-])C(=O)NCCC(=O)N[C@@H](CC(C)C)C(=O)N[C@H](C(=O)N[C@@H](Cc1ccccc1)C(=O)N[C@]1(C)CCCCCCC=CCCC[C@@](C)(C(=O)N[C@@H](CO)C(=O)N[C@@H](C)C(=O)N[C@@H](C)C(N)=O)NC(=O)[C@H](CC2CCC2)NC(=O)[C@H](CCCCN)NC(=O)[C@H](C)NC(=O)[C@H](Cc2c[nH]c3ccccc23)NC(=O)[C@H](Cc2ccc(O)cc2)NC(=O)[C@H](CCC(=O)O)NC1=O)[C@@H](C)O [MP-550, AZIDE-ATSP-7041 (Q9K)]")
0.60
>>> test_value("CC(=O)N[C@@H](CCCCN=[N+]=[N-])C(=O)N[C@@H](CC(C)C)C(=O)N[C@H](C(=O)N[C@@H](Cc1ccccc1)C(=O)N[C@]1(C)CCCCCCC=CCCC[C@@](C)(C(=O)N[C@@H](CCC(=O)O)C(N)=O)NC(=O)[C@H](CC2CCC2)NC(=O)[C@H](CCC(N)=O)NC(=O)[C@H](C)NC(=O)[C@H](Cc2c[nH]c3ccccc23)NC(=O)[C@H](Cc2ccc(O)cc2)NC(=O)[C@H](CCC(=O)O)NC1=O)[C@@H](C)O [MP-4008] (Ac-[Lys(N3)]LTF[R8]EYWAQ[Cba][S5]E-NH2; staple 5-12)")
1.36
>>> test_value("CC(=O)N[C@@H](Cc1ccccc1)C(=O)N[C@]1(C)CCCCCCC=CCCC[C@@](C)(C(=O)N[C@@H](CO)C(=O)N[C@@H](C)C(=O)N[C@@H](C)C(N)=O)NC(=O)[C@H](CC2CCC2)NC(=O)[C@H](CC(C)C)NC(=O)[C@H](CCC(N)=O)NC(=O)[C@H](Cc2c[nH]c3ccccc23)NC(=O)[C@H](Cc2ccc(O)cc2)NC(=O)[C@H](CCC(=O)O)NC1=O [MP-1202] (Ac-F[R8]EYWQL[Cba][S5]SAA-NH2; staple 2-9)")
1.18
>>> test_value("CC(=O)N[C@@H](CCCNC(=N)N)C(=O)NCCC(=O)N[C@@H](CC(C)C)C(=O)N[C@H](C(=O)N[C@@H](Cc1ccccc1)C(=O)N[C@]1(C)CCCCCCC=CCCC[C@@](C)(C(=O)N[C@@H](CO)C(=O)N[C@@H](C)C(=O)N[C@@H](C)C(N)=O)NC(=O)[C@H](CC2CCC2)NC(=O)[C@H](CCC(N)=O)NC(=O)[C@H](C)NC(=O)[C@H](Cc2c[nH]c3ccccc23)NC(=O)[C@H](Cc2ccc(O)cc2)NC(=O)[C@H](CCC(=O)O)NC1=O)[C@@H](C)O")
0.30
